# Tested on: 993429-296-R-J1-PDC complex spheroid growth, percent test/control;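 further: spheroids exposed to compounds for seven days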
# method.summary: Anticancer human tumor 993429-296-R-J1-PDC patient-derived uterine sarcoma cell line growth inhibition [Asc]
# measurement.conditions: second compound 0.03 µM; first compound 3.16 µM; active compounds read low
Quick reference for viability, T/C among some molecules
Reply with just the number (in %).

Illustrative cases are given below, each with its answer.
{"molecule": "C#Cc1c(F)ccc2cc(O)cc(-c3ncc4c(N5CC6CCC(C5)N6)nc(OCC56CCCN5CC(F)C6)nc4c3F)c12 (centres undefined) + CCN1C(C(=O)NC23CCC(C(=O)O)(CC2)CC3)C(c2cccc(Cl)c2F)C2(C(=O)Nc3cc(Cl)ccc32)C12CCCCC2", "val": 86.3}
{"molecule": "O=C(c1cc(Cc2n[nH]c(=O)c3ccccc23)ccc1F)N1CCN(C(=O)C2CC2)CC1 + CCN1C(C(=O)NC23CCC(C(=O)O)(CC2)CC3)C(c2cccc(Cl)c2F)C2(C(=O)Nc3cc(Cl)ccc32)C12CCCCC2", "val": 66.3}
{"molecule": "C=CC(=O)N1CCN(c2nc(=O)n(-c3c(C)ccnc3C(C)C)c3nc(-c4c(O)cccc4F)c(F)cc23)C(C)C1 (centres undefined) + CCN1C(C(=O)NC23CCC(C(=O)O)(CC2)CC3)C(c2cccc(Cl)c2F)C2(C(=O)Nc3cc(Cl)ccc32)C12CCCCC2", "val": 114}

Turning to the following molecule.
Request: Quick one: viability, T/C of C=C(F)C(=O)N1CCN(c2nc(OCC3CCCN3C)nc3c2CCN(c2cccc4cccc(Cl)c24)C3)CC1CC#N (centres undefined) + CCN1C(C(=O)NC23CCC(C(=O)O)(CC2)CC3)C(c2cccc(Cl)c2F)C2(C(=O)Nc3cc(Cl)ccc32)C12CCCCC2 ?
Response: 7.9
